- Tested on: pigweed (Amaranthus retroflexus)
- ASSAY_SUMMARY: Test A postemergence
- Type: in vivo
- RUN_CONDITIONS: Amaranthus retroflexus, post-emergence, 240 h, Postemergence, 500 g ai/ha; visual injury, 0 to 100 scale (0 no effect, 100 complete control), approx. 10 d; read-out: Plant response rating, Pigweed
RECORDED_ENDPOINT: pest or weed control at 500 g/ha
Value and unit, in that order.

Any idea what pest or weed control at 500 g/ha was measured for Cc1c(F)cccc1NC(=O)[C@H]1C(=O)N(C)C[C@@H]1c1ccc(C(F)(F)F)cc1 ?
70%

Any idea what pest or weed control at 500 g/ha was measured for Cc1ccc([C@H]2CN(C)C(=O)[C@@H]2C(=O)Nc2ccc(F)c(F)c2F)cc1 ?
70%

Any idea what pest or weed control at 500 g/ha was measured for CC(C)c1cccc([C@H]2CN(C)C(=O)[C@@H]2C(=O)Nc2cccc(F)c2F)c1 ?
50%

Any idea what pest or weed control at 500 g/ha was measured for CN1C[C@H](c2ccccc2)[C@](C)(C(=O)Nc2ccccc2F)C1=O (racemic) ?
0%

Any idea what pest or weed control at 500 g/ha was measured for CSc1ccccc1NC(=O)[C@H]1C(=O)N(C)C[C@@H]1c1ccc2c(c1)OC(F)(F)O2 ?
80%

Any idea what pest or weed control at 500 g/ha was measured for CN1C[C@H](c2cccc(C(F)(F)F)c2)[C@@H](C(=O)Nc2ccc(F)c(F)c2F)C1=O ?
70%

Any idea what pest or weed control at 500 g/ha was measured for CSc1ccccc1NC(=O)[C@H]1C(=O)NC[C@@H]1c1ccc2c(c1)OCO2 ?
0%

Any idea what pest or weed control at 500 g/ha was measured for Cc1cc([C@H]2CN(C)C(=O)[C@@H]2C(=O)Nc2cccc(F)c2C)ccc1F ?
20%

----------
- Test system: Kochia (Kochia scoparia)
- ASSAY_SUMMARY: Test A postemergence
- Format: in vivo
- RUN_CONDITIONS: Bassia scoparia, post-emergence, 240 h, 125 g ai/ha, Postemergence, visual rating about 10 d after treatment; read-out: Kochia plant response rating (0 to 100 scale)
RECORDED_ENDPOINT: pest or weed control at 125 g/ha

Any idea what pest or weed control at 125 g/ha was measured for CN1C[C@H](c2ccc3c(c2)OC(F)(F)O3)[C@@H](C(=O)Nc2cnccc2C(F)(F)F)C1=O [Compound 1354] ?
20%

Any idea what pest or weed control at 125 g/ha was measured for CN1C[C@H](c2cc(Cl)cc(Cl)c2)[C@@H](C(=O)Nc2cccc(F)c2F)C1=O [Compound 1270] ?
60%

Any idea what pest or weed control at 125 g/ha was measured for Cc1ccc([C@H]2CN(C)C(=O)[C@@H]2C(=O)Nc2c(F)c(F)c(F)c(F)c2F)cc1 [Compound 1292] ?
0%

Any idea what pest or weed control at 125 g/ha was measured for CN1C[C@H](c2csc3c2CCOC3)[C@@H](C(=O)Nc2ccccc2F)C1=O [Compound 1267] ?
0%

----------
- System: ragweed (common ragweed, Ambrosia elatior)
- ASSAY_SUMMARY: Test A preemergence
- Assay type: in vivo
- RUN_CONDITIONS: Preemergence, 500 g ai/ha, visual injury approx. 10 d
RECORDED_ENDPOINT: Ragweed plant response rating (0 to 100 scale, 0 is no effect, 100 is complete control)

Any idea what Ragweed plant response rating (0 to 100 scale, 0 is no effect, 100 is complete control) was measured for CC(C)Oc1cccc(C2CNC(=O)C2C(=O)Nc2ccccc2F)c1 (centres unmarked) ?
60

Any idea what Ragweed plant response rating (0 to 100 scale, 0 is no effect, 100 is complete control) was measured for Cc1ccc(F)c(NC(=O)C2C(=O)NCC2c2cccc(OC(F)F)c2)c1 (centres unmarked) ?
0

Any idea what Ragweed plant response rating (0 to 100 scale, 0 is no effect, 100 is complete control) was measured for Cc1cc(NC(=O)C2C(=O)NCC2c2cccc(OC(F)F)c2)ccc1F (centres unmarked) ?
0

Any idea what Ragweed plant response rating (0 to 100 scale, 0 is no effect, 100 is complete control) was measured for O=C1NCC(c2cccc(OCC(F)F)c2)C1C(=O)Nc1ccc(F)c(F)c1F (centres unmarked) ?
0

Any idea what Ragweed plant response rating (0 to 100 scale, 0 is no effect, 100 is complete control) was measured for COc1c(F)ccc(NC(=O)C2C(=O)NCC2c2ccc(F)c(F)c2)c1F (centres unmarked) ?
0

Any idea what Ragweed plant response rating (0 to 100 scale, 0 is no effect, 100 is complete control) was measured for CN1CC(c2ccccc2)C(C(=S)Nc2ccccc2F)C1=O (centres unmarked) ?
0

Any idea what Ragweed plant response rating (0 to 100 scale, 0 is no effect, 100 is complete control) was measured for O=C1NCC(c2ccc(Br)cc2)C1C(=O)Nc1ccccc1Cl (centres unmarked) ?
20

Any idea what Ragweed plant response rating (0 to 100 scale, 0 is no effect, 100 is complete control) was measured for COc1ccc(NC(=O)C2C(=O)NCC2c2ccc(F)c(F)c2)cc1F (centres unmarked) ?
0

Any idea what Ragweed plant response rating (0 to 100 scale, 0 is no effect, 100 is complete control) was measured for COc1c(F)ccc(NC(=O)C2C(=O)N(C)CC2c2cccc(OC(F)(F)C(F)F)c2)c1F (centres unmarked) ?
50

Any idea what Ragweed plant response rating (0 to 100 scale, 0 is no effect, 100 is complete control) was measured for CCc1cccc(C2CN(C)C(=O)C2C(=O)Nc2ccccc2F)c1 (centres unmarked) ?
60

Any idea what Ragweed plant response rating (0 to 100 scale, 0 is no effect, 100 is complete control) was measured for Cc1cc(C2CN(C)C(=O)C2C(=O)Nc2ccc(F)cc2F)ccc1F (centres unmarked) ?
50

Any idea what Ragweed plant response rating (0 to 100 scale, 0 is no effect, 100 is complete control) was measured for Cc1cc(F)ccc1NC(=O)C1C(=O)N(C)CC1c1cccc(C(F)(F)F)c1 (centres unmarked) ?
0

Any idea what Ragweed plant response rating (0 to 100 scale, 0 is no effect, 100 is complete control) was measured for CN1CC(c2c(F)cccc2F)C(C(=O)Nc2cccc(F)c2F)C1=O (centres unmarked) ?
70

Any idea what Ragweed plant response rating (0 to 100 scale, 0 is no effect, 100 is complete control) was measured for CN1CC(c2ccc3c(c2)OC(F)(F)O3)C(C(=O)Nc2ccccc2F)C1=O (centres unmarked) ?
80
